Please go through the items and note down their protein stability index.
Assay: protein stability index of a GFP-peptide fusion (yeast GPS) (PSI 1-4); higher = more stable; sorted into four equal gates, so the index is relative within each strain
Conditions: ubr1∆
No unit in the answer, only the number.

Look up protein stability index of NKDLSELVIRLEKDAAD [YIL149C/MLP2] and report it.
3.15

Note down protein stability index recorded for CITKQDGFKIYDNEKTA [PUP2]
2.82

Answer with the recorded protein stability index for the sequence listed here: AIGCIERSDLLPYLSDT [YJR042W/NUP85]
3.06

Retrieve protein stability index measured for LYKFQNFQDLSYLSETL [YML103C/NUP188] and print it.
2.49

Give the measured protein stability index for WKPNPSYDVENVNSRNQ [SRB5]
3.3

Entry ATNRVDVLDPALLRSGR [RPT5] needs its protein stability index filled in; supply it.
2.94

Retrieve protein stability index measured for TFDLTPEDAQLLLAANT [RPS0A] and print it.
2.45

Report protein stability index for RTLNIQPEVAVKAAINF [YIL149C/MLP2]
2.21

Give the reported value of protein stability index for this record: KNISSQLDSKLMVFNDD [YGR119C/NUP57]
2.08

Tell me protein stability index reported for CNALIHIKFSAGTEANA [SRB4]
2.33

Report protein stability index, nothing else, for this sequence: VDPVYKDVAKPTGPKTA [FAS2]
2.34

Look up protein stability index of APTPAAPGASVPATAAP [SWI1] and report it.
3.21

Give reported protein stability index value for ASLGIGLAAMGSANIEV [RPN2]
1.53

Entry VLHVSAKGKSGVQTAYI [RRP40] needs its protein stability index filled in; supply it.
2.91

----------
Assay: protein stability index of a GFP-peptide fusion (yeast GPS) (PSI 1-4); higher = more stable; sorted into four equal gates, so the index is relative within each strain
Details: ubr1∆
Field: protein stability index. Provide a value for each of the sequences that follow.
Lab note: write the figure by itself, no unit.

Specify measured protein stability index for ELTLAEQQVKEAEMAYV [SMC4] .
2.81

Note down protein stability index recorded for FSHLAGGKIINKLGNDP [BRR2]
3.02

Report measured protein stability index; entry is LKNTMQYLTNFSRFRDQ [RPB4]
3.19

Identify measured protein stability index corresponding to QIQKNGPEITPEEATTI [PRP8]
3.12

Annotate the sequence QQNYSKVLLPSINISCV [SWI1] with its measured protein stability index.
2.53

Tell me measured protein stability index for MEMSEKIQFILEQMELS [RPN5] please.
2.66

Give protein stability index for the following sequence: DVSRVAAVETLYQDMAA [RPL20A]
2.09

Fill in reported protein stability index for this entry: LWSIHPSRQFDHYESNQ [SRB8]
2.64

Recall and state the measured protein stability index for KTRGPFHFRAPSRIFYK [RPL16A] .
2.77

Return protein stability index (reported value) for this sequence: AVEQLAGCKIDNVDDIG [YDL088C/ASM4]
2.61

Write down protein stability index measured for item ALRALARSGLRIGRIED [RPS14A]
2.01

Report protein stability index, nothing else, for this sequence: DHKFPIRENKVTYSRVS [BRN1]
2.66

Let me know recorded protein stability index for TDGVIGSRTTTNHVLEV [RPO31] , thanks.
3.54

Return protein stability index for the following sequence: LLVDQKQLNSLRRSGQI [SMD1]
2.72

----------
Assay: protein stability index of a GFP-peptide fusion (yeast GPS) (PSI 1-4); higher = more stable; sorted into four equal gates, so the index is relative within each strain
Conditions: doa10∆
measurementKind: protein stability index
// print number alone

Complete the entry with protein stability index for SAKAELEKLVDHHPEGL [PRE10]
2.84

Tell me its protein stability index given YINVNPQEETITFLIEK [ECM29] as the entry.
3.23

Given the sequence APLFKKNSSRPMPPIRG [SMD3] , write its reported protein stability index.
2.42

Given the sequence DLKFKRHKNKHIQGFPT [DSN1] , write its reported protein stability index.
3.15

Indicate the recorded protein stability index value for this sequence: MLVDLNVPWPQNSYADK [RPP1]
1.59

# return recorded protein stability index for input NSGNSNSNSNQQSTDAD [RPT1]
2.59

Provide only the value of recorded protein stability index for AGVQGSKVSKQQAKGAF [RPL24B]
3.08

Retrieve protein stability index measured for ITYALSGYVRSRGESDD [RPS21B] and print it.
1.74

Read the entry LGLFIHKISFSGTKSEV [YJL039C/NUP192] and write its reported protein stability index.
1.86

State its protein stability index for this sequence: NQNFSLTFQPQQQTNAL [GRR1]
2.95

Return reported protein stability index. Input sequence: HFFQIDGFNKTFHDELN [YML103C/NUP188]
1.67

Annotate the sequence LILGLNTSIAQFDIQSP [YML103C/NUP188] with its measured protein stability index.
1.94

State its protein stability index for this sequence: HYERTQTKENKRCVGVI [RPN8]
2.9

Please indicate protein stability index recorded for ATVDEFPLCVHLVSNEL [RPL10]
3.01

----------
Experiment: protein stability index of a GFP-peptide fusion (yeast GPS) (PSI 1-4); higher = more stable; sorted into four equal gates, so the index is relative within each strain
Settings: pdr5∆
Values of protein stability index greater than or equal to 3 map to TRUE; values below map to FALSE.

Quick check, protein stability index >= 3? FVHYGEIKNDFIMVKGC [RPL3]
FALSE

# bool: protein stability index of APIGKHYVVLDTNVVLQ [DIS3] >= 3
FALSE

Exam item: decide whether the reported protein stability index for SSVVSEPKKPSFTFASS [YOR098C/NUP1] is at least 3.
TRUE

Would you say SFAIYSSTIDAPAFHTS [SRB8] shows protein stability index at minimum 3?
FALSE

Reported protein stability index at or above 3? TEKEEAVAKAAEKKVVR [RPL17A]
TRUE

I'd appreciate it if you could say whether KRLTEDERIEKELNTER [CDC53] has protein stability index at least equal to 3.
FALSE

Could you tell me if the measured protein stability index of TMLELLNQLDGFETSKN [RPT6] reaches 3 or more?
TRUE

# check: protein stability index of ENESTNYQYKIQELRKL [MED7] is greater than or equal to 3
FALSE

Tell me whether protein stability index is at least 3 here: ASLGIGLAAMGSANIEV [RPN2]
FALSE

Form field: protein stability index at least 3? Entry: KYSKLVDNVTLESYKTQ [SRP72]
TRUE

Exam item: decide whether the reported protein stability index for DKSTTQLRKEIQLLDEN [MED11] is at least 3.
FALSE

Check this sequence for protein stability index at or above 3: NGVIIAADNLGSYGSLL [PRE4]
TRUE

Hi team, for PVRTIVPISTSQTNNSF [SIR4] , is the recorded protein stability index at or above 3?
FALSE

Could you tell me if the measured protein stability index of RVLETTLVEFETIKMKE [BRN1] reaches 3 or more?
TRUE

Item QLDDEDFDLLNKTLTFE [FAS1] with protein stability index of 3 or above?
TRUE

Quick check: does IPKPRTAGKTSVKSART [SNF2] have protein stability index greater than or equal to 3?
TRUE

Item GQLEDFDSELIHLKQKL [SMC3] with protein stability index of 3 or above?
FALSE

Form field: protein stability index at least 3? Entry: NKANIQALIHGLNRHYY [RPN11]
FALSE

Determine whether measured protein stability index meets or exceeds 3 for DDKYGRKFALEKLYIFY [SRP72]
FALSE

# bool: protein stability index of LTAIPILLEPIYEVDIT [SNU114] >= 3
FALSE

Hi team, for NVTSFMPFWKFFMKNFP [SRB8] , is the recorded protein stability index at or above 3?
FALSE

Given the entry KIDKPIRTQVNTGGESV [RGR1] , answer whether its protein stability index meets or surpasses 3.
FALSE

Kindly determine if protein stability index recorded for RERRAALTDFERFQVMV [RPL14A] is above or exactly 3.
FALSE

Reported protein stability index reaches at least 3 for AVKKLYAIIINYTKDNE [YCS4] ?
FALSE

Could you please find out whether GRFLRVPKEGLFYFDSS [BRR2] has protein stability index that meets 3 or exceeds it?
TRUE

Is it the case that SVEAYLVSLFEDTNLAA [HHT1] has protein stability index reaching or exceeding 3?
FALSE

Given DEANIEIDPLTGMPISN [BRN1] , state whether its protein stability index is at least 3.
FALSE

Has GDPFDYKAQADTFYMNV [RPB3] a recorded protein stability index greater than or equal to 3?
TRUE

Would you say ITPSAMKLVPSIPPATI [RPB5] shows protein stability index at minimum 3?
FALSE

Kindly determine if protein stability index recorded for ETIIEADKSLPSSMATL [YJR042W/NUP85] is above or exactly 3.
FALSE

Does protein stability index meet or surpass 3 for FNATVDETKGFDDNDSG [MED2] ?
TRUE

Can IEEAKSIRRQDYINELS [REC8] be said to have protein stability index at or above 3?
TRUE

Determine whether measured protein stability index meets or exceeds 3 for VSANTPKSLNSNININV [SWI1]
FALSE

Determine whether measured protein stability index meets or exceeds 3 for FVCLSCSHIFTSDQKNK [RPB9]
FALSE

Decide: protein stability index of QIYTQRAYMRPLGVILT [SCL1] >= 3?
FALSE

Hello, I need to know if ATRTLVASIQNDPSAEV [YCG1] has measured protein stability index not below 3. Thanks!
TRUE

Item YGSSPKLLATSTKIIML [SRB8] with protein stability index of 3 or above?
FALSE

Is reported protein stability index greater than or equal to 3 here: YLLEELESYLIVHHPYQ [SSN8]
FALSE

Please tell me: is the sequence LVALKRNADELSSYQKK [PRE5] at or over 3 in terms of protein stability index?
FALSE

// inclusive: protein stability index at least 3? input: TKRQKHFAWLPTHIWNA [POP1]
FALSE

Is protein stability index at least 3? Consider LQKKVASILLALTQMDQ [RPB3]
FALSE

# check: protein stability index of SKWFNLEKIHSIEVQSL [SWI3] is greater than or equal to 3
FALSE

Has QIVSYCSNNKNSIKNVP [SSN2] a recorded protein stability index greater than or equal to 3?
FALSE

Assess whether reported protein stability index for AKEVYKIHQQLLFKARL [GAL11] sits at 3 or higher.
TRUE

Could you please find out whether DDDISDDEEDEIEENCL [RPN4] has protein stability index that meets 3 or exceeds it?
TRUE

Tell me whether protein stability index is at least 3 here: FDFIKDNETPSKKTSPK [YOR098C/NUP1]
FALSE
